- ASSAYED SYSTEM: HDAC6 (Homo sapiens)
- Construct: Full length human recombinant HDAC6 protein was expressed in baculoviral system
- Sequence (Q9UBN7 1-1215): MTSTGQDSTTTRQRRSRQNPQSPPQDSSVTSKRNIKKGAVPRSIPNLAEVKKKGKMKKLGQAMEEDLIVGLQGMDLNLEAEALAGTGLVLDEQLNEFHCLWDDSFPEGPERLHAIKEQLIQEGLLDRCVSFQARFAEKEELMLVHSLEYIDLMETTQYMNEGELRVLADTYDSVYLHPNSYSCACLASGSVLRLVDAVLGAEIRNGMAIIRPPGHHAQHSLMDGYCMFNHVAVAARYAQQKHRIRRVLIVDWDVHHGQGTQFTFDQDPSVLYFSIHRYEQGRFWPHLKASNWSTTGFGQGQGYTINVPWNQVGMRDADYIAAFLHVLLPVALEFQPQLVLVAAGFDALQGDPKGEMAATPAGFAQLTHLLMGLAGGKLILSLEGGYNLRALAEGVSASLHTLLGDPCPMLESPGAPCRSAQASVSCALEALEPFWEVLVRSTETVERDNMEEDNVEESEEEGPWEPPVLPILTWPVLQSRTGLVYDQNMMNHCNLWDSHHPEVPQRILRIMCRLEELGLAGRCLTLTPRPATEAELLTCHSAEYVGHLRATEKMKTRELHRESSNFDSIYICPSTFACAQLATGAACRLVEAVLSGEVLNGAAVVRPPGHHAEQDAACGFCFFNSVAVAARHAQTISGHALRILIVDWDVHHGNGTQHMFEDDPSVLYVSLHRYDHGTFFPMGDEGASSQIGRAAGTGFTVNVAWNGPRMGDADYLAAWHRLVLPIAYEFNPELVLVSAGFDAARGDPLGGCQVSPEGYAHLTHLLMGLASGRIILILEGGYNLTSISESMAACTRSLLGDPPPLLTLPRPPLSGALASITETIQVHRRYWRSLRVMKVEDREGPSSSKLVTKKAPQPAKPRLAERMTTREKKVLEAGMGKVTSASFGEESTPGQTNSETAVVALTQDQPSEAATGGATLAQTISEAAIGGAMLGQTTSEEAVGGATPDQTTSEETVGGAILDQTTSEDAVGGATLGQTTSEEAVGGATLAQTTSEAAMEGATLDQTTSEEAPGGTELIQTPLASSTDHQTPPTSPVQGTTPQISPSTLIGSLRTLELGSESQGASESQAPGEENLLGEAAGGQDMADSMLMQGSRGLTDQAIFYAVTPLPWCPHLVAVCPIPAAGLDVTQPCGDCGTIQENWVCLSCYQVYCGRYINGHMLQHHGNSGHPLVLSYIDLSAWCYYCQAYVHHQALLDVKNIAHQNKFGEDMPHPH
- ASSAY: In vitro Histone Deacetylase Assay (enzymatic HDAC6 electrophoretic mobility shift assay)
- STATED CONDITIONS: full length human recombinant HDAC6, 1 nM enzyme, 2 μM peptide substrate RHKK(Ac)-NH2, 25° C.; read-out: HDAC6 activity range
METRIC: IC50

{"MOLECULE": "CC(C)CN1CCCC2(CCc3cc(C(=O)NO)ccc3C2)C1=O (single isomer, unassigned) [Compound I-189]", "EXPERIMENTAL VALUE": "≤ 100 nM"}
{"MOLECULE": "O=C(NO)c1ccc2c(c1)CCC1(CCN(Cc3ccncc3)C1=O)S2(=O)=O (stereo not drawn)", "EXPERIMENTAL VALUE": "> 500 nM"}
{"MOLECULE": "O=C(NO)c1ccc2c(c1)CC[C@@]1(CCN(C/C=C/c3ccccc3)C1=O)C2", "EXPERIMENTAL VALUE": "≤ 100 nM"}
